# experimental.details: Murine microsomal stability
# Format: in vitro ADME
# test.conditions: mouse, pooled murine liver microsomes, pH 7.4
observation.type: CLint scaled at 1 μM (mL/min/kg)

compound	test.value
Cl.N=C(NN=Cc1ccc(Cl)cc1)NN=Cc1ccc(Cl)cc1 [robenidine, reference compound]	34.4
Cl.N#Cc1cc(/C=N/NC(=N)N/N=C/c2ccc(F)c(C#N)c2)ccc1F [Compound 1]	29.3
Cl.N#Cc1cccc(/C=N/NC(=N)N/N=C/c2cccc(C#N)c2)c1 [Compound 21]	93.8
Cl.N=C(N/N=C/c1ccc(OC(F)(F)F)cc1)N/N=C/c1ccc(OC(F)(F)F)cc1 [Compound 16]	31.7

* * *

# System: HepG2 cells
# experimental.details: HepG2 cytotoxicity assay
# Format: cell-based, human
# test.conditions: read-out: IC50 cytotoxicity, 24 h drug, 24 h recovery
pIC50: −log10 of the molar value.
observation.type: pIC50

structure.string	test.value
N=C(NN=Cc1ccc(O)cc1)NN=Cc1ccc(O)cc1	4.41
N=C(NN=Cc1ccc2c(c1)OC(F)(F)O2)NN=Cc1ccc2c(c1)OC(F)(F)O2	< 3.70
N=C(NN=Cc1ccc(C(=O)O)cc1)NN=Cc1ccc(C(=O)O)cc1	< 3.70
N=C(NN=Cc1ccc(-n2cnnn2)cc1)NN=Cc1ccc(-n2cnnn2)cc1	< 3.70
N=C(NN=Cc1cccc(-n2cnnn2)c1)NN=Cc1cccc(-n2cnnn2)c1	3.97
N=C(NN=Cc1ccc(-c2ccccc2)cc1)NN=Cc1ccc(-c2ccccc2)cc1	< 3.70
N=C(NN=Cc1ccc(S(N)(=O)=O)cc1)NN=Cc1ccc(S(N)(=O)=O)cc1	< 3.70

* * *

# experimental.details: Murine microsomal stability
# Type: in vitro ADME
# test.conditions: mouse, pooled murine liver microsomes, pH 7.4, murine microsomal stability, t1/2, 1 μM, 0.5 mg/mL protein, 37 °C, 1 h, NADPH
Reported values of half-life at 1 μM for individual entries
observation.type: half-life at 1 μM (min)

molecule	observation.type	censoring.sign	test.value
Cl.N#Cc1cccc(/C=N/NC(=N)N/N=C/c2cccc(C#N)c2)c1	half-life at 1 μM	=	58.2
Cl.N=C(NN=Cc1ccc(Cl)cc1)NN=Cc1ccc(Cl)cc1 [robenidine, reference compound]	half-life at 1 μM	>	150
Cl.N=C(N/N=C/c1ccc(OC(F)(F)F)cc1)N/N=C/c1ccc(OC(F)(F)F)cc1	half-life at 1 μM	>	150
O=C(c1ccc(F)cc1)C1CCN(CCn2c(=O)[nH]c3ccccc3c2=O)CC1 [ketanserin, reference compound]	half-life at 1 μM	=	14.5
Cl.N#Cc1cc(/C=N/NC(=N)N/N=C/c2ccc(F)c(C#N)c2)ccc1F	half-life at 1 μM	>	150

* * *

Reported values of log10 of IC50 for individual entries
# Test system: P. falciparum strain Tm90–C2B
# experimental.details: SYBR Green growth inhibition assay, P. falciparum Tm90-C2B
# Type: cell-based, Plasmodium falciparum
# test.conditions: Plasmodium falciparum, TM90, 72 h, read-out: IC50 Tm90–C2B
observation.type: log10 of IC50 (log10 of the value in nM)

compound	log10 of IC50
Cc1ccc(/C=N/NC(=N)N/N=C/c2ccc(C)cc2)cc1	3.40
N=C(N/N=C/c1cccc(Cl)c1)N/N=C/c1cccc(Cl)c1	2.82
CCN(CC)CCCC(C)Nc1ccnc2cc(Cl)ccc12 (stereo not drawn) [chloroquine, reference compound]	2.47
N=C(N/N=C/c1cccc(OC(F)(F)F)c1)N/N=C/c1cccc(OC(F)(F)F)c1	3.48
N=C(N/N=C/c1ccccc1Br)N/N=C/c1ccccc1Br	2.99
N=C(N/N=C/c1cccc(Br)c1)N/N=C/c1cccc(Br)c1	3.26
N=C(N/N=C/c1ccc(Br)cc1)N/N=C/c1ccc(Br)cc1	2.95
CN(C)c1ccc(/C=N/NC(=N)N/N=C/c2ccc(N(C)C)cc2)cc1	2.33
N=C(N/N=C/c1ccc(C(F)(F)F)cc1)N/N=C/c1ccc(C(F)(F)F)cc1	3.44
N=C(N/N=C/c1ccc(F)cc1)N/N=C/c1ccc(F)cc1	3.69
Cl.N=C(NN=Cc1ccc(Cl)cc1)NN=Cc1ccc(Cl)cc1 [robenidine, reference compound]	3.12
N=C(N/N=C/c1ccc(N2CCOCC2)cc1)N/N=C/c1ccc(N2CCOCC2)cc1	2.47
Cl.N#Cc1cc(/C=N/NC(=N)N/N=C/c2ccc(F)c(C#N)c2)ccc1F	1.20

// data source = paper PMC8273112
